MEASUREMENT_TARGET: Diacylglycerol lipase-beta (Homo sapiens) (UniProt Q8NCG7)
Sequence (Q8NCG7 whole entry, looked up): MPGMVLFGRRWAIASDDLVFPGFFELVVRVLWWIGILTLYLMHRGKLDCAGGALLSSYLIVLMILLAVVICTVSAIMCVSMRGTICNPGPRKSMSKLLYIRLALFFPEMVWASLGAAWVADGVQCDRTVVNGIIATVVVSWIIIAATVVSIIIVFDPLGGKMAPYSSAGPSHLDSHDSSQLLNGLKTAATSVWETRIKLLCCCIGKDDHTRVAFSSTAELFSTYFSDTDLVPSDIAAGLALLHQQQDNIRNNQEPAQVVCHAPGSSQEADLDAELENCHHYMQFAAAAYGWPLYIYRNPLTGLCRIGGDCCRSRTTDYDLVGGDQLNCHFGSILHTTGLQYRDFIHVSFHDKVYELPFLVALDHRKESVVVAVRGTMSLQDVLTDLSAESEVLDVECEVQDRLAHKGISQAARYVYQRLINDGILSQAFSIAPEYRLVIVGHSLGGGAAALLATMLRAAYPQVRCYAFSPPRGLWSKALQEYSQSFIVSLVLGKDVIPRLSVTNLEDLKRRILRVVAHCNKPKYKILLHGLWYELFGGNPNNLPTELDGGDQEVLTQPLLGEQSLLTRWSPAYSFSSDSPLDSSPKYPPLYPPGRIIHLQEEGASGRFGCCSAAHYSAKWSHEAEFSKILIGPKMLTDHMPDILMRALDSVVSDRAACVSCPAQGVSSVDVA
ASSAY_NAME: inhibition of human DAGLB hydrolase activity – biochemical, fluorescence, HTS, primary screen (AID 504411);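 also: 0% = enzyme with vehicle and 100% = wells lacking enzyme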
PARTICULARS: HEK293T DAGLB membrane lysate, EnzChek fluorogenic substrate; at 5.17 µM
Hit rate of the full screen: of about 340,000 compounds, about 200 (0.059%) were called active. Rule as the data show it: active = inhibition above about 34%; inactive = the rest. Only a selection was taken, and actives are over-represented in it overall.
Labels: active, inactive

{"columns": ["COMPOUND", "LABEL_VALUE"],
 "data": [
  ["COc1ccc(Br)cc1/C=N/Nc1ccc(S(=O)(=O)Nc2ccccc2C(=O)O)cc1[N+](=O)[O-]", "active"],
  ["O=C1Cc2cc(S(=O)(=O)Nc3cccc(F)c3)ccc2N1", "inactive"],
  ["COc1ccc(S(=O)(=O)Nc2ccccc2C(=O)N2CCCC2)cc1C", "inactive"],
  ["COc1cccc(/C=N/Nc2ccc(S(=O)(=O)Nc3ccccc3C(=O)O)cc2[N+](=O)[O-])c1O", "active"],
  ["Nc1ccc(OCC(O)C[n+]2ccc(CCS(=O)(=O)[O-])cc2)cc1 (stereo unspecified)", "inactive"],
  ["CCOC(=O)C1CN(S(=O)(=O)c2ccc(F)cc2)C1", "inactive"],
  ["CCOc1ccccc1OCCCNCc1ccccc1", "inactive"],
  ["CC(=O)Nc1ccc(NS(=O)(=O)c2cc(C)sc2C)cc1", "inactive"],
  ["Cc1ccccc1C(=O)N1CCC(C(=O)Oc2ccc(C#N)cc2)CC1", "inactive"],
  ["O=C(CN1CCC(NC(=O)C2CC2)CC1)Nc1ccccc1[N+](=O)[O-]", "inactive"],
  ["O=C(NC1CCCC1)C1CC(=O)N(c2ccc(F)cc2)C1 (stereo unspecified)", "inactive"],
  ["COc1ccc(OC)c(NC(=O)c2cccc(S(=O)(=O)N3CCN(C(C)=O)CC3)c2)c1", "inactive"],
  ["O=C(O)c1ccccc1-c1ccccc1C(=O)Nc1ccccc1Br", "inactive"],
  ["O=c1[nH]c(=O)n(Cc2ccco2)c2c1C(C(F)(F)F)(C(F)(F)F)N=C(c1ccco1)N2", "inactive"],
  ["COc1ccc(C(=O)NCc2ccc(C)cc2)cc1S(=O)(=O)N1CCCC1", "inactive"],
  ["CC(=O)Nc1ccc(/C(C)=N/NC(=O)CN(c2ccccc2Br)S(C)(=O)=O)cc1", "inactive"],
  ["COCc1cc(C)n(CC(=O)NCC2CCCO2)c(=O)c1C#N (stereo unspecified)", "inactive"],
  ["CCOc1ccc(S(=O)(=O)NCCC(=O)NCC(C)(C)N2CCOCC2)cc1", "inactive"],
  ["CN1CCC(=NNC(=O)CN(c2cccc(Cl)c2)S(C)(=O)=O)CC1", "inactive"],
  ["CCOC(=O)c1sc(/N=C/Nc2nc(C)c(C(=O)OCC)s2)nc1C", "inactive"],
  ["CCCN1C(=O)C(NS(=O)(=O)c2ccc(N)cc2)(C(F)(F)F)C(C(=O)OC)=C1C (stereo unspecified)", "inactive"]
]}

* * *

This listing pairs compounds with measured inhibition.
MEASUREMENT_TARGET: Diacylglycerol lipase-beta (Homo sapiens)
ASSAY_NAME: inhibition of human DAGLB hydrolase activity – biochemical, fluorescence, HTS, primary screen (AID 504411);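 also: 0% = enzyme with vehicle and 100% = wells lacking enzyme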
PARTICULARS: HEK293T DAGLB membrane lysate, EnzChek fluorogenic substrate; at 5.17 µM; hits give high values
Out of some 340,000 compounds screened, about 200 (0.059%) were called active. The list comes from a sample in which actives are over-represented; it also holds close analogues and randomly drawn compounds.

{"columns": ["COMPOUND", "UNIT_INFO", "inhibition"],
 "data": [
  ["COc1ccc(OC)c(NC(=O)CN(C)CCOc2ccc(Br)cc2)c1", "%", -4.02],
  ["CC(NC(=O)c1ccc(S(=O)(=O)Nc2ccccc2)cc1)c1ccc(S(N)(=O)=O)cc1 (stereo unspecified)", "%", 1.2],
  ["CN(C)c1ccc(NC(=O)CN2C3CCCC2CC(NC(=O)c2ccccc2)C3)cc1 (stereo unspecified)", "%", 0.94],
  ["C=CCC(NCCCO)c1cccc(OC)c1OC (stereo unspecified)", "%", -0.64],
  ["COc1ccccc1NS(=O)(=O)N(C)C", "%", -1.14],
  ["O=C1N(c2ccc(Cl)cc2)C(c2ccc(Cl)cc2)N2CCCN12 (stereo unspecified)", "%", -1.46]
]}

* * *

MEASUREMENT_TARGET: Diacylglycerol lipase-beta (Homo sapiens)
ASSAY_NAME: inhibition of human DAGLB hydrolase activity – biochemical, fluorescence, HTS, primary screen (AID 504411);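 also: 0% = enzyme with vehicle and 100% = wells lacking enzyme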
PARTICULARS: HEK293T DAGLB membrane lysate, EnzChek fluorogenic substrate; at 5.17 µM; hits give high values
The campaign covered roughly 340,000 compounds. About 200 (0.059%) were called active. Only a selection was taken, and actives are over-represented in it overall.

{"columns": ["MOLECULE", "inhibition [%]"],
 "data": [
  ["CCCNC(=O)CN(Cc1ccccc1F)S(=O)(=O)c1ccc(C)cc1", 1.71],
  ["COC(=O)CC1=NN(c2nc(C)cc(C)n2)C(=O)C1", -2.2],
  ["O=C(c1cccs1)N1CCCC(c2nc(-c3ccc(F)cc3)no2)C1 (stereo not given)", -7.27],
  ["CCN(CC(=O)NCc1cccs1)C(=O)c1cccc(S(=O)(=O)Nc2ccccc2OC)c1", 0.52],
  ["COc1cc(NC(=O)CCS(=O)(=O)c2ccc3c(c2)oc(=O)n3C)cc(OC)c1", -2.39]
]}

* * *

This listing pairs compounds with measured inhibition.
MEASUREMENT_TARGET: Diacylglycerol lipase-beta (Homo sapiens) (UniProt Q8NCG7)
ASSAY_NAME: inhibition of human DAGLB hydrolase activity – biochemical, fluorescence, HTS, primary screen (AID 504411);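 also: 0% = enzyme with vehicle and 100% = wells lacking enzyme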
PARTICULARS: HEK293T DAGLB membrane lysate, EnzChek fluorogenic substrate; at 5.17 µM; hits give high values
Screen size: about 340,000 compounds; about 200 (0.059%) were called active. The sample holds actives, similar compounds and a random draw of the others, so the mix is not that of the screen.

{"columns": ["COMPOUND", "inhibition"],
 "data": [
  ["CC(C)c1ccc2c(c1)c(SC(C)(C)C)c(CC(C)(C)C(=O)O)n2Cc1ccc(Cl)cc1", "1.23% (inactive)"],
  ["COc1ccc(C(=O)OCC(=O)Nc2cc(C)on2)cc1F", "1.42% (inactive)"],
  ["O=C(CCNC(=O)c1ccc([N+](=O)[O-])cc1)NC1CCCCC1", "0.66% (inactive)"],
  ["CCCN(CCC)S(=O)(=O)c1ccc(C(=O)N2CC3CCC(CC3)C2)cc1", "-8.08% (inactive)"],
  ["COc1ccc(C2=NS(=O)(=O)N(C)C(C(=O)NC(C)c3ccccc3)=C2)cc1 (stereo not given)", "-1.27% (inactive)"]
]}

* * *

MEASUREMENT_TARGET: Diacylglycerol lipase-beta (Homo sapiens) (UniProt Q8NCG7)
ASSAY_NAME: inhibition of human DAGLB hydrolase activity – biochemical, fluorescence, HTS, primary screen (AID 504411);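 also: 0% = enzyme with vehicle and 100% = wells lacking enzyme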
PARTICULARS: HEK293T DAGLB membrane lysate, EnzChek fluorogenic substrate; at 5.17 µM; hits give high values
About 200 (0.059%) of roughly 340,000 compounds were called active. The entries come from a sample that favours actives as a whole.

{"columns": ["MOLECULE", "inhibition / %"],
 "data": [
  ["CC(=O)c1nn(-c2cccc(Br)c2)cc1C(=O)c1cccc2ccccc12", -10.7],
  ["COCCCNC(=O)[C@H]1N2C(=O)c3ccccc3C2SC1(C)C (stereo partly specified)", -1.33],
  ["CCCCCCn1c(=O)n2n(c1=O)C[C@]1(OC(=O)NCc3ccc(OC)c(OC)c3)CN(S(=O)(=O)c3ccc(C)cc3)C[C@]1(O)C2", 1.56],
  ["COc1ccccc1C(=O)NC(=O)COC(=O)C1CC1", 3.34],
  ["CN(c1ccccn1)c1ncnc2[nH]ncc12", 0.01],
  ["C[C@H](CO)N1C[C@H](C)[C@@H](CN(C)C(=O)NC2CCCCC2)Oc2ccc(NC(=O)c3ccncc3)cc2C1=O", -0.14],
  ["CCOC(=O)C1CCN(C(=O)Nc2ccc(C)c(Cl)c2)CC1", 0.52],
  ["Cc1ccc(OCCCCN2CCCCC2)c(Br)c1", 1.62],
  ["CCCC(O)(c1ccccc1)C(c1ccccc1)c1ccccn1 (stereo unspecified)", -1.16],
  ["Cc1ccc2cccc(O)c2[n+]1[O-]", 1.39],
  ["CSCCC(=O)N1CCCC(CNC(=O)c2ccccc2Cl)C1 (stereo unspecified)", -3.33]
]}

* * *

MEASUREMENT_TARGET: Diacylglycerol lipase-beta (Homo sapiens)
ASSAY_NAME: inhibition of human DAGLB hydrolase activity – biochemical, fluorescence, HTS, primary screen (AID 504411);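 also: 0% = enzyme with vehicle and 100% = wells lacking enzyme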
PARTICULARS: HEK293T DAGLB membrane lysate, EnzChek fluorogenic substrate; at 5.17 µM
The whole screen tested about 340,000 compounds, of which about 200 (0.059%) were called active. Rule as the data show it: active = inhibition above about 34%; inactive = the rest. This is one part of a sample in which actives are shown more often than they occur.
Labels: active, inactive

{"columns": ["COMPOUND", "MEASUREMENT_TARGET", "LABEL_VALUE"],
 "data": [
  ["O=C(COC(=O)c1ccc(O)cc1O)NC(=O)c1ccccc1", "Diacylglycerol lipase-beta (Homo sapiens)", "inactive"],
  ["O=C(NNc1c2ccccc2nc2ccccc12)c1cc2ccccc2cc1O", "Diacylglycerol lipase-beta (Homo sapiens)", "active"],
  ["OC(c1ccccc1)c1nccn1Cc1ccccc1 (configuration not stated)", "Diacylglycerol lipase-beta (Homo sapiens)", "inactive"],
  ["COCCCN1C(=O)C(CC(=O)NCc2cccs2)CC(C(=O)N2CCOCC2)=C1C (configuration not stated)", "Diacylglycerol lipase-beta (Homo sapiens)", "inactive"],
  ["Cc1ccc(/C=N/NC(=O)COc2ccccc2-c2ccccc2)cc1", "Diacylglycerol lipase-beta (Homo sapiens)", "inactive"],
  ["COc1ccc(-c2cc(C(F)(F)F)nc(S(C)(=O)=O)n2)cc1OC", "Diacylglycerol lipase-beta (Homo sapiens)", "inactive"],
  ["O=C1C=C(NCCNc2c(F)c(F)c(CO)c(F)c2F)CCC1", "Diacylglycerol lipase-beta (Homo sapiens)", "inactive"],
  ["CCOC(=O)c1c(NC(=O)CCCN2CCOCC2)sc2c1CC(C)(C)OC2", "Diacylglycerol lipase-beta (Homo sapiens)", "inactive"],
  ["O=C(NNC(=O)c1ccccc1O)c1ccccc1O", "Diacylglycerol lipase-beta (Homo sapiens)", "inactive"],
  ["COC(=O)C(=Nc1ccccc1)/C(C(=O)C(=O)N(C)c1ccccc1)=C(\\O)c1ccc(Cl)cc1", "Diacylglycerol lipase-beta (Homo sapiens)", "inactive"],
  ["N#CC(Cc1cc2ccccc2n1S(=O)(=O)c1ccccc1)OCc1ccccc1 (configuration not stated)", "Diacylglycerol lipase-beta (Homo sapiens)", "inactive"],
  ["Cc1ccccc1C(=O)N1CCC(C(=O)Nc2ccc(S(=O)(=O)N(C)C(C)C)cc2)CC1", "Diacylglycerol lipase-beta (Homo sapiens)", "inactive"],
  ["CCOC(=O)C1CSC(CC(=O)Nc2ccc(OCC)cc2)C(=O)N1 (configuration not stated)", "Diacylglycerol lipase-beta (Homo sapiens)", "inactive"],
  ["COc1cccc(N(C(=O)CNC(=O)c2ccco2)C(C(=O)NC2CCCCC2)c2cccnc2)c1 (configuration not stated)", "Diacylglycerol lipase-beta (Homo sapiens)", "inactive"],
  ["CCC(Oc1ccccc1C)C(=O)Nc1ccc(S(=O)(=O)Nc2cc(C)on2)cc1 (configuration not stated)", "Diacylglycerol lipase-beta (Homo sapiens)", "inactive"],
  ["Cc1ccnc(NC(=O)C2CCN(S(=O)(=O)c3c(C)c(C)cc(C)c3C)CC2)c1", "Diacylglycerol lipase-beta (Homo sapiens)", "inactive"],
  ["COc1cccc(NC(=S)NC(=O)c2c(Cl)c(C)nn2C)c1", "Diacylglycerol lipase-beta (Homo sapiens)", "inactive"],
  ["O=[N+]([O-])c1cc(S(=O)(=O)CCCN2CCOCC2)ccc1F", "Diacylglycerol lipase-beta (Homo sapiens)", "inactive"],
  ["COc1ccc(CNC(=O)c2ccc3oc(C(C)C)nc3c2)cc1", "Diacylglycerol lipase-beta (Homo sapiens)", "inactive"],
  ["O=c1oc2ccc(C#CC3(O)CCCCC3)cc2cc1-n1cc(-c2ccsc2)nn1", "Diacylglycerol lipase-beta (Homo sapiens)", "inactive"],
  ["CC1CCN(S(=O)(=O)c2ccc3ncn(CC(=O)N(C)C4CCCCC4)c(=O)c3c2)CC1", "Diacylglycerol lipase-beta (Homo sapiens)", "inactive"],
  ["Cc1nc(NC(=O)c2ccc3c(c2)OCCO3)ccc1Br", "Diacylglycerol lipase-beta (Homo sapiens)", "inactive"]
]}

Provenance of the data: PubChem BioAssay AID504411
